# target-under-test: human PDE2A1 (Homo sapiens)
# Construct: GST; purchased BPS Bioscience (San Diego, Calif.) 60020; host or cells: insect cells
# Sequence (O00408 1-920 isoform O00408-2): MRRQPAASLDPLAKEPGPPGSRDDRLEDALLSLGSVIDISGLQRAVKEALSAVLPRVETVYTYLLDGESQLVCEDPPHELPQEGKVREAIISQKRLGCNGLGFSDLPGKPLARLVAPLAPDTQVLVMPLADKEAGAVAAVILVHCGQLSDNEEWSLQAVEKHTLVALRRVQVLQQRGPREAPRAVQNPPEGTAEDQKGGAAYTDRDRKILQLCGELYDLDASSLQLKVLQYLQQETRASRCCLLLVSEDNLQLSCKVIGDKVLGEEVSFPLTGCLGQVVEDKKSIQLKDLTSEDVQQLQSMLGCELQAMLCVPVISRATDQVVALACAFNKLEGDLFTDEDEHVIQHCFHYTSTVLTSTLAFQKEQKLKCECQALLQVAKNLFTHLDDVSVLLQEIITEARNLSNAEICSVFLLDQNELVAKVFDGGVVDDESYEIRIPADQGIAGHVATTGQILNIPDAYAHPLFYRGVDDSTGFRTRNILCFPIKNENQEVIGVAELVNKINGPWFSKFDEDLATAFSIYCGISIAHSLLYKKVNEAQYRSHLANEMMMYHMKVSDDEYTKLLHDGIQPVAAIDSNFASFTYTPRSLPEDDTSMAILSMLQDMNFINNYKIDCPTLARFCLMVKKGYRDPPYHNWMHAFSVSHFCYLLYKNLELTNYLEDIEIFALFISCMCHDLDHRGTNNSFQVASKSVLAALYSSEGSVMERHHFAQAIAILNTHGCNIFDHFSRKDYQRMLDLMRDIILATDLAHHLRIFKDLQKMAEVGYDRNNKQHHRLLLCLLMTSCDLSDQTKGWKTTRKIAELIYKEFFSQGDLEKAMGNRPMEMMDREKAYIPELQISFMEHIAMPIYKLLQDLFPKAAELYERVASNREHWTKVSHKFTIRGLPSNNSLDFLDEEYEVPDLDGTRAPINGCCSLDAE
# measurement-description: IMAP FP PDE selectivity panel, human PDE2A1
# Type: biochemical
# assay-conditions: Lab B; read-out: Human PDE2 Ki (nM) Lab B
Entries and their log10 Ki values follow.
measured-attribute: log10 Ki (log10 of the value in nM)

[[record]]
compound = "CC(C)(O)[C@@H](Nc1cc(CO)cc2ncnn12)c1ccc(OC(F)(F)F)cc1F"
target_under_test = "human PDE2A1 (Homo sapiens)"
recorded_result = 2.01

[[record]]
compound = "COc1cc(NC2(c3ccc(C(F)(F)F)c(F)c3)CC2)n2ncnc2n1"
target_under_test = "human PDE2A1 (Homo sapiens)"
recorded_result = 1.26

[[record]]
compound = "OCCCc1cc(NC2(c3ccc(C(F)(F)F)c(F)c3)CC2)n2ncnc2n1"
target_under_test = "human PDE2A1 (Homo sapiens)"
recorded_result = 2.31

[[record]]
compound = "CNc1cc(N[C@@H](c2ccc(C(F)(F)F)c(F)c2)C(C)(C)C)n2ncnc2n1"
target_under_test = "human PDE2A1 (Homo sapiens)"
recorded_result = 2.57

[[record]]
compound = "Cc1cc(N[C@@H](c2ccc(C(F)(F)F)c(F)c2)C(C)(C)C)n2nc(CO)nc2n1"
target_under_test = "human PDE2A1 (Homo sapiens)"
recorded_result = 2.26

[[record]]
compound = "CC(C)(O)C(Nc1cc(Cl)nc2ncnn12)c1ccc(C(F)(F)F)c(F)c1 (single isomer, unassigned) [Example 224]"
target_under_test = "human PDE2A1 (Homo sapiens)"
recorded_result = 2.79

[[record]]
compound = "COCc1cc(N[C@@H](c2ccc(C(F)(F)F)c(F)c2)C(C)(C)C)n2ncnc2n1"
target_under_test = "human PDE2A1 (Homo sapiens)"
recorded_result = 2.99

[[record]]
compound = "CC(C)(O)[C@@H](Nc1cncc2ncnn12)c1ccc(OC(F)(F)F)c(F)c1"
target_under_test = "human PDE2A1 (Homo sapiens)"
recorded_result = 2.32

[[record]]
compound = "CN(C)c1cc(N[C@@H](c2ccc(C(F)(F)F)c(F)c2)C(C)(C)C)n2ncnc2n1"
target_under_test = "human PDE2A1 (Homo sapiens)"
recorded_result = 2.79

[[record]]
compound = "Cc1cc(NC(c2ccc(OC(F)(F)F)cc2F)C(C)(C)O)n2nc(C)nc2n1 (single isomer, unassigned) [Example 135]"
target_under_test = "human PDE2A1 (Homo sapiens)"
recorded_result = 1.48

[[record]]
compound = "Cc1cc(NC(c2ccc(C(F)(F)F)nc2)C(C)(C)O)n2ncnc2n1 (single isomer, unassigned) [Example 225]"
target_under_test = "human PDE2A1 (Homo sapiens)"
recorded_result = 2.41


====

# target-under-test: human PDE2A1 (Homo sapiens)
# Construct: GST; purchased BPS Bioscience (San Diego, Calif.) 60020; host or cells: insect cells
# measurement-description: IMAP FP PDE selectivity panel, human PDE2A1
# Assay type: biochemical
# assay-conditions: Lab B; read-out: Human PDE2 Ki (nM) Lab B
measured-attribute: Ki (nM)

[[record]]
compound = "Cc1cc(NC(c2ccc(CC(F)(F)F)cc2)C(C)(C)O)n2ncnc2n1 (single isomer, unassigned) [Example 118]"
readout_units = "nM"
comparator = ">"
recorded_result = 2960

[[record]]
compound = "Cc1cc(N[C@@H](c2ccc(C3(C)CC3)cc2)C(C)C)n2ncnc2n1"
readout_units = "nM"
comparator = "="
recorded_result = 26

[[record]]
compound = "Cc1cc(NC2(c3ccc(SC(F)(F)F)c(F)c3)CC2)n2ncnc2n1"
readout_units = "nM"
comparator = "="
recorded_result = 33

[[record]]
compound = "Cc1cc(N[C@@H](c2ccc(F)c(OC(F)(F)F)c2)C(C)(C)O)n2ncnc2n1"
readout_units = "nM"
comparator = "="
recorded_result = 2290

[[record]]
compound = "Cc1cc(NC2(c3ccc(C(F)(F)F)c(F)c3)COC2)n2ncnc2n1"
readout_units = "nM"
comparator = "="
recorded_result = 83

[[record]]
compound = "Cc1cc(NC(c2ccc(C3(C)CC3)cc2)C(C)(C)O)n2ncnc2n1 (single isomer, unassigned) [Example 121]"
readout_units = "nM"
comparator = "="
recorded_result = 11

[[record]]
compound = "Cc1cc(N[C@H](C)c2ccc(SC(F)(F)F)c(F)c2)n2ncnc2n1"
readout_units = "nM"
comparator = "="
recorded_result = 18

[[record]]
compound = "FCc1cc(NC2(c3ccc(C(F)(F)F)c(F)c3)CC2)n2ncnc2n1"
readout_units = "nM"
comparator = "="
recorded_result = 31


====

# target-under-test: human PDE2A1 (Homo sapiens)
# Construct: GST; purchased BPS Bioscience (San Diego, Calif.) 60020; host or cells: insect cells
# measurement-description: IMAP FP PDE selectivity panel, human PDE2A1
# Assay type: biochemical
# assay-conditions: Lab B; read-out: Human PDE2 Ki (nM) Lab B
Entries and their Ki values follow.
measured-attribute: Ki (nM)

[[record]]
compound = "Cc1cc(NC(c2ccc(C(F)(F)F)c(F)c2)C(C)(C)N)n2ncnc2n1 (stereo not shown)"
recorded_result = 60

[[record]]
compound = "Cc1cc(NC2(c3ccc(C(F)(F)F)cc3F)CC2)n2ncnc2n1"
recorded_result = 162

[[record]]
compound = "CC(C)(O)C(Nc1cc(C(F)(F)F)nc2ncnn12)c1ccc(CC(F)(F)F)cc1 (single isomer, unassigned) [Example 169]"
recorded_result = 50

[[record]]
compound = "CC(C)(C)[C@@H](Nc1cc(N)nc2ncnn12)c1ccc(C(F)(F)F)c(F)c1"
recorded_result = 108

[[record]]
compound = "CC(C)c1cc(NC(c2ccc(C(F)(F)F)cc2)C(C)(C)O)n2ncnc2n1 (stereo in doubt)"
recorded_result = 636

[[record]]
compound = "CCCc1nc2nc(C)cc(NC3(c4ccc(C(F)(F)F)c(F)c4)CC3)n2n1"
recorded_result = 113

[[record]]
compound = "C[C@@H](Nc1cc(CO)nc2ncnn12)c1ccc(C(F)(F)F)c(F)c1"
recorded_result = 387

[[record]]
compound = "Fc1cc(C2(Nc3cc(C4CC4)nc4ncnn34)CC2)ccc1OC(F)(F)F"
recorded_result = 25

[[record]]
compound = "Cc1cc(N[C@@H](c2ccc(C3CC3)cc2)C(C)(C)C)n2ncnc2n1"
recorded_result = 4.4

[[record]]
compound = "Cc1cc(N[C@@H](c2ccc(C3CC3)c(F)c2)C2CC2)n2ncnc2n1"
recorded_result = 20

[[record]]
compound = "Cc1cc(NC2(c3ccc(C(F)(F)F)c(F)c3)CC2)n2nc(C)nc2n1"
recorded_result = 91

[[record]]
compound = "Cc1cc(N[C@H](C)c2ccc(C(F)(F)F)c(Cl)c2)n2ncnc2n1"
recorded_result = 113

[[record]]
compound = "CC(C)(O)C(Nc1cc(C2CC2)nc2ncnn12)c1ccc(S(F)(F)(F)(F)F)cc1 (single isomer, unassigned) [Example 145]"
recorded_result = 25


====

# target-under-test: human PDE2A1 (Homo sapiens)
# Construct: GST; purchased BPS Bioscience (San Diego, Calif.) 60020; host or cells: insect cells
# measurement-description: IMAP FP PDE selectivity panel, human PDE2A1
# Format: biochemical
# assay-conditions: Lab B; read-out: Human PDE2 Ki (nM) Lab B
Entries and their Ki values follow.
measured-attribute: Ki (nM)

[[record]]
compound = "Cc1cc(NC(c2ccc3ccccc3c2)C(C)(C)O)n2ncnc2n1 (single isomer, unassigned) [Example 122]"
measured_attribute = "Ki"
comparator = ">"
recorded_result = 2960

[[record]]
compound = "CC(C)(O)C(Nc1cc(C(F)F)nc2ncnn12)c1ccc(OC(F)F)c(F)c1 (single isomer, unassigned) [Example 189]"
measured_attribute = "Ki"
comparator = "="
recorded_result = 17

[[record]]
compound = "Cc1cc(N[C@](C)(c2ccc(OC(F)(F)F)cc2)C(C)(C)O)n2ncnc2n1 [Example 154]"
measured_attribute = "Ki"
comparator = ">"
recorded_result = 2960

[[record]]
compound = "Cc1cc(NC(c2ccc(CC(F)(F)F)cc2)C(C)(C)O)n2ncnc2n1 (single isomer, unassigned) [Example 119]"
measured_attribute = "Ki"
comparator = "="
recorded_result = 15

[[record]]
compound = "Cc1cc(NC(c2cc3ccccc3n2C)C(C)(C)O)n2ncnc2n1 (single isomer, unassigned) [Example 124]"
measured_attribute = "Ki"
comparator = "="
recorded_result = 79

[[record]]
compound = "Cc1cc(NC(c2ccc(-c3ccccc3)cc2)C(C)(C)O)n2ncnc2n1 (single isomer, unassigned) [Example 127]"
measured_attribute = "Ki"
comparator = "="
recorded_result = 21

[[record]]
compound = "Cc1cc(N[C@H](C)c2ccc(SC(F)(F)F)cc2)n2ncnc2n1 [Example 10]"
measured_attribute = "Ki"
comparator = "="
recorded_result = 21

[[record]]
compound = "Cc1cc(NC(C)(C)c2ccc(C(F)(F)F)c(F)c2)n2ncnc2n1 [Example 46]"
measured_attribute = "Ki"
comparator = "="
recorded_result = 48

[[record]]
compound = "CC(C)(O)[C@H](Nc1cc(C(F)(F)F)nc2ncnn12)c1ccc(S(F)(F)(F)(F)F)cc1 (single isomer, unassigned) [Example 178]"
measured_attribute = "Ki"
comparator = "="
recorded_result = 421

[[record]]
compound = "Cc1cc(NC(c2ccc(OC(F)(F)F)c(F)c2)C2COC2)n2ncnc2n1 (single isomer, unassigned) [Example 230]"
measured_attribute = "Ki"
comparator = "="
recorded_result = 167

[[record]]
compound = "C[C@@H](Nc1cc(CO)cc2ncnn12)c1ccc(C(F)(F)F)c(F)c1 [Example 272]"
measured_attribute = "Ki"
comparator = "="
recorded_result = 121

[[record]]
compound = "Cc1cc(N[C@@H](c2ccc(C(F)(F)F)c(F)c2)C(C)(C)C)n2nc(C3CC3)nc2n1 [Example 205]"
measured_attribute = "Ki"
comparator = "="
recorded_result = 24

[[record]]
compound = "CC(O)c1cc(NC2(c3ccc(C(F)(F)F)c(F)c3)CC2)n2ncnc2c1 (stereo not drawn) [Example 275]"
measured_attribute = "Ki"
comparator = "="
recorded_result = 111

[[record]]
compound = "FS(F)(F)(F)(F)c1ccc(C2(Nc3cncc4ncnn34)CC2)cc1 [Example 290]"
measured_attribute = "Ki"
comparator = "="
recorded_result = 90

